Values from patent US10889569B2

# Assay text: Pharmacokinetics assay in rats after intragastrical administration
# Format: in vivo, SD rats
# Condition notes: Sprague-Dawley, rat, plasma, po; 30 mg/kg, intragastric, male rats; read-out: Clearance CLz/F
Quantity measured: CL/F (L/h/kg)

[[record]]
compound_string = "COc1ccc(-n2c(COC(F)F)nnc2N2CC(c3cccc4cc(F)ccc34)C2)cn1"
test_result = 6.24

[[record]]
compound_string = "COc1ccc(-n2c(N3CC(N4CCCc5cc(F)ccc54)C3)nnc2C(F)(F)F)cn1"
test_result = 7.86

[[record]]
compound_string = "COc1ccc(-n2c(N3CC(N4CCOc5cc(F)ccc54)C3)nnc2C(F)(F)F)cn1"
test_result = 0.229

[[record]]
compound_string = "COc1ccc(-n2c(COC(F)F)nnc2N2CC(n3cc(C)c4cc(F)ccc43)C2)cn1"
test_result = 5.75

[[record]]
compound_string = "COCc1nnc(N2CC(c3cccc4cc(F)ccc34)C2)n1-c1ccc(OC)nc1"
test_result = 3.83


a. COc1ccc(-n2c(COC(F)F)nnc2N2CC(N3CCOc4cc(F)ccc43)C2)cn1
b. COCc1nnc(N2CC(n3cc(C)c4cc(F)ccc43)C2)n1-c1ccc(OC)nc1
(Q) Consider a and b . Which of these has its CL/F at a higher number? Provide the label of your selected option as the answer.
(A) a
(a: 12.1 L/h/kg, b: 2.88 L/h/kg)
